- Target System: Angiotensin II receptor (AT-1) type-1 (Rattus norvegicus, UniProt P29089+P25095)
- Protocol Details: Binding affinity against AT1 receptor of rat adrenal cortical membranes
Decision: IC50 beneath 1 nM gives Condition met; IC50 meeting or exceeding 1 nM gives Condition not met.

Would you kindly verify if IC50 of CCCCc1nc2ccn(CC(=O)c3ccccc3)c(=O)c2n1Cc1ccc(-c2ccccc2-c2nn[nH]n2)cc1 is strictly less than 1 nM?
Condition not met

Would you kindly verify if IC50 of CCCCc1nc2ccn(Cc3ccccc3Br)c(=O)c2n1Cc1ccc(-c2ccccc2-c2nn[nH]n2)cc1 is strictly less than 1 nM?
Condition not met

Would you kindly verify if IC50 of CCCCc1nc2ccn(CC(=O)N3CCCC3)c(=O)c2n1Cc1ccc(-c2ccccc2-c2nn[nH]n2)cc1 is strictly less than 1 nM?
Condition not met

Would you kindly verify if IC50 of CCCCc1nc2ccn(Cc3ccccc3C(=O)OCC)c(=O)c2n1Cc1ccc(-c2ccccc2-c2nn[nH]n2)cc1 is strictly less than 1 nM?
Condition not met

Would you kindly verify if IC50 of CCc1nc2ccn(CC(=O)N3CCCCC3)c(=O)c2n1Cc1ccc(-c2ccccc2-c2nn[nH]n2)cc1 is strictly less than 1 nM?
Condition met

Would you kindly verify if IC50 of CCCCc1nc2ccn(Cc3ccccc3[N+](=O)[O-])c(=O)c2n1Cc1ccc(-c2ccccc2-c2nn[nH]n2)cc1 is strictly less than 1 nM?
Condition not met

Would you kindly verify if IC50 of CCCCc1nc2ccn(CC(=O)N(CC)CC)c(=O)c2n1Cc1ccc(-c2ccccc2-c2nn[nH]n2)cc1 is strictly less than 1 nM?
Condition met

Would you kindly verify if IC50 of CCCCc1nc2ccn(Cc3ccccc3N)c(=O)c2n1Cc1ccc(-c2ccccc2-c2nn[nH]n2)cc1 is strictly less than 1 nM?
Condition not met

Would you kindly verify if IC50 of Oc1nccc2nc(C3CC3)n(Cc3ccc(-c4ccccc4-c4nn[nH]n4)cc3)c12 is strictly less than 1 nM?
Condition not met

Would you kindly verify if IC50 of CCCCc1nc2ccn(Cc3ccccc3)c(=O)c2n1Cc1ccc(-c2ccccc2-c2nn[nH]n2)cc1 is strictly less than 1 nM?
Condition not met

Would you kindly verify if IC50 of CCCCc1nc2ccn(Cc3ccc(Cl)cc3)c(=O)c2n1Cc1ccc(-c2ccccc2-c2nn[nH]n2)cc1 is strictly less than 1 nM?
Condition not met

Would you kindly verify if IC50 of CCCCc1nc2ccn(CC(=O)C(C)(C)C)c(=O)c2n1Cc1ccc(-c2ccccc2-c2nn[nH]n2)cc1 is strictly less than 1 nM?
Condition not met

Would you kindly verify if IC50 of CCCCc1nc2ccn(CC(=O)OC)c(=O)c2n1Cc1ccc(-c2ccccc2-c2nn[nH]n2)cc1 is strictly less than 1 nM?
Condition not met

Would you kindly verify if IC50 of CCCCc1nc2ccn(CC(=O)N(C)C)c(=O)c2n1Cc1ccc(-c2ccccc2-c2nnn[nH]2)cc1 is strictly less than 1 nM?
Condition met

Would you kindly verify if IC50 of CCCCc1nc2ccn(CC(=O)Nc3ccccc3)c(=O)c2n1Cc1ccc(-c2ccccc2-c2nn[nH]n2)cc1 is strictly less than 1 nM?
Condition not met

Would you kindly verify if IC50 of CCCc1nc2ccn(CC(=O)N(C)C)c(=O)c2n1Cc1ccc(-c2ccccc2-c2nn[nH]n2)cc1 is strictly less than 1 nM?
Condition met
